Source listed as the supplement of paper PMC9170038.

- System: K4 kissing-loop RNA reporter;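 note: bound reporter read as fluorescence of individual clusters on recovered sequencing chips by microscopy, with normalized cluster intensities fitted with a binding model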
- Test details: apparent KD of K4 kissing-loop reporter; higher = weaker reporter binding
- Run conditions: Eterna round: R107; input ligand: arginine 13.2 mM
Hi, to clarify the labels: y covers apparent KD of K4 kissing-loop reporter from 200 nM upward, n covers anything below 200 nM.

Here are 6 sequences together with their reported answers.
CGUACGGUUUCUUUCUUUCCGUACGAGUGCCGAGGACCGGUACGGCCGCCACUCGCUACAGCCUAGUGAUGUUAGGCAUUUCUUU | n
AAAAUAAUCCAGUGAUGUUGGUAUGCAGAUACCAGCGACGAAAGUCGCCCUUGGCAGCUGUGGACGUACAAAAUAAGUACGUCCU | y
UGAUAAAGCAGUGAUGUUGCAAGAAAUGAUACCAGUUAAGAAGAGAACCCUUGGCAGCAUAAAGUGCGCUCUAAUGAGUGUGCUU [whbob_SS_Theo_A_w50] | n
GGAUAGGAUAGAGGAUAUGGGUUAGGCAAGAAUAACUUGUCUUGUAAAUCCAUGAGGAGUGAUGUUCCAGAAGGCUGUCCUAUCG [MatMod 5 - Jieux - Exclusion - FMN B] | n
UCUGAAGGUGGAGGAUAUUGAUUGAAUCUUGGUCAGGAGUGAUGUUCCGGGAAGCCUUGGAUUCAUCGAGAAGGCCAAGGAUAGU [#10 K4 FMN B Same State] | y
AAAUAGAUCAGUCACCCAGUGAUGUUGGAAGGAGCGUGCGAAAGCACAGGUAGGUCGCCAAAAUAAAAUUGGCUGAUCAAAAUAA | y

Enquiry: Is apparent KD of K4 kissing-loop reporter at least 200 nM? Consider UUUCGUCUCUGAGGAUAUCAGAAUAGAGUGAUGUUCUAUCAAAGCCCAGUGAUGUUGGAUGCUAUCUGAGAAGGCAGUGGGCGAG [Same State FMN B GF 11]
Return: n

Enquiry: Is apparent KD of K4 kissing-loop reporter at least 200 nM? Consider AAGUCACAGGCAGGAUAUGCUUAGUAUUAAGGCCAUAUAUACGUAUAGAGUGAUGUUUUGUACCAGGCAGAAGGGCUACAUCCGU [FMN B Excl V4 (+U)]
Return: y

Enquiry: Is apparent KD of K4 kissing-loop reporter at least 200 nM? Consider GGUGACAACCAGGAGUGAUGUAUAGAAUAGCGAGGACCGGUACGGCCGCCACUCGUGAAGAGAAAGGAGUGAUGUUCCGUAAUGG [Kazoo C3]
Return: n

Enquiry: Is apparent KD of K4 kissing-loop reporter at least 200 nM? Consider AGAUGUCCCUGGGAUACCAGUCGGAGUCUCAGAGCUCGGAGUGAUGUUCUGGGAUGUUUCGGCCCUUGGCAGCUCUGGGACUCCC [#2 Exclusion - Theophylline B Attempt #25 (HarryS)]
Return: y

Enquiry: Is apparent KD of K4 kissing-loop reporter at least 200 nM? Consider AGACUACCACACUGUCAAUAGACAGUGUACUAGGAUAUGCUGAUAAGCAGAAGGAGUGAUGUUCCUUGGUAGUCAAUAAAAUAAU [FmnAX 13 U28+U67]
Return: y

* * *

- Tested on: MS2 coat protein
- Test details: apparent KD of MS2 coat protein; designed switch direction (-1 OFF switch, 1 ON switch): -1; higher = weaker reporter binding
- Run conditions: Eterna round: R95; input ligand: microRNA oligo, concentration not stated
Readout kind: apparent KD of MS2 coat protein
Write the numeric value and append its unit.

CAGAAACAUGAGGAUCACCCAUGUGAGGAUAUGAAAAAGAAAAGAAAAGAAAGAAGAAUCAGAAGGCACAAAGG [salish99-ex1_r3_081] (puzzle: Exclusion 1) | 30.8 nM
AAGGAUAGAGGAUAUACAUAGAUACAGAUUCAUGUAGACCUACAUGAGGAUCACCCAUGUAGAAGGCUAUCCUA [Fiskers Ex 2 - 11] (puzzle: Exclusion 2) | 16 nM
UAAUAAAGUGUGAGGAUAUGCUGGUCCUUGGAUCAGCAGAAGGCACAUGAGGAUCACCCAUGUAAUAUAUAUAU [Mat - Exclusion 4 - JL Mod - D54] (puzzle: Brourd's mod of Exclusion 4) | 62.4 nM
CCAGCGUAUGUGAGGAUAUGCUGGUCCUUGGAUCAGCAGAAGGCACAUGAGGAUCACCCAUGUGAUAACGUUGG [JL bmx4 3.39] (puzzle: Brourd's mod of Exclusion 4) | 46.6 nM

Now look at this one.
Query GCACGGUAAGUGAGGAUAUACCUCUGGAUACAGAGGUAGAAGGCACAUGAGGAUCACCCAUGUCCUAGCCGUGC [Fiskers BMX 4 - 88] (puzzle: Brourd's mod of Exclusion 4) yields apparent KD of MS2 coat protein of 32.9 nM

* * *

Quick reference: apparent KD of MS2 coat protein of the listed items.
- Tested on: MS2 coat protein
- Test details: apparent KD of MS2 coat protein; designed switch direction (-1 OFF switch, 1 ON switch): -1; higher = weaker reporter binding
- Run conditions: input ligand: microRNA oligo, concentration not stated
Your answer should be a plain number; it is taken to be in nM.

Example entries and their recorded answers appear below.
ACAUGAGGAUCACCCAUGUGACCACAAUGGCUGAUGUAACGACAGGAUAUUCGUGAAUAUCUAACGAAGAAGGGUCAUGACUGG [Deportation 62 - Jieux - Exclusion NG 3] (Eterna round: R96, puzzle: Exclusion NG 3) | 52.7
UGUUGUUACGCAGGAUAUUGCCAACAGGCAGUAGGAUAUCCGAAAGGAGAAGGACCGCCAACAGGCGAGAAGGGCGGGUUAACA [pwkr exNG2 2xF7 2xFMN.10] (Eterna round: R96, puzzle: Exclusion NG 2) | 227
UUGUACCGGUGAGGAUAUUUUUAAUAGAGCUUUAUGAUAUACAUGAGGAUCACCCAUGUUACGUUGAAGAAGGCAUCGGAUUAU [JL JR Sub091 mod 5] (Eterna round: R96, puzzle: Exclusion NG 2) | 15.5
GCGGACUGGAUCGUGAGAUCCGAGACAUGAGGAUCACCCAUGUAGGAUAUCGAUUGCUUUGCAGUCGAGAAGGGCGUGGUCCGC [JL denovo 16] (Eterna round: R96, puzzle: Exclusion NG 3) | 44.9

Query UUUUUAUCUGAAGGAUAUACUUAACAUGAGGAUCACCCAUGUGGUGUUGUGAGUGAGUGAGUUUAGUAGAAGGUCAAUUAUUUU [JMF's solution 19] (Eterna round: R96, puzzle: Exclusion NG 2) yields apparent KD of MS2 coat protein of 392

* * *

Quick reference: apparent KD of MS2 coat protein of the listed items.
- System: MS2 coat protein
- Test details: apparent KD of MS2 coat protein; designed switch direction (-1 OFF switch, 1 ON switch): -1; higher = weaker reporter binding
- Run conditions: input ligand: microRNA oligo, concentration not stated
Your answer should be a plain number; it is taken to be in µM.

Example entries and their recorded answers appear below.
ACAUGUCAUCGAGGAUAUUGUACACAUGAGGAUCACCCAUGUAUUCGGUUGCUCUCGCGUGAGUUCGAGAAGGCGAUGUACAUU [Ex NG2 #82] (Eterna round: R96, puzzle: Exclusion NG 2) | 0.0242
ACAAACACGGCAGGAUAUCCUCGCAUAUGAUAGGUUGUUCUCCACAUGAGGAUCACCCAUGUCGAGGAGAAGGGCCAUCAUUCU [Tibema] (Eterna round: R96, puzzle: Exclusion NG 2) | 0.0127
CCGUUCCGUGUAGGAUAUUGGCCUUCCUCGGGCCGAGAAGGACAUGAGGAUCACCCAUGUAUGCUAUUAUCGCGCGUGGCGCAC [Design 97] (Eterna round: R96, puzzle: Exclusion NG 1) | 0.0226
AUGUGCUGCUAAGGAUAUGUGAACUGUUUCCGAAUAGAAGGUAGCUAUACAUGAGGAUCACCCAUGUACGUGAACCGAGUAAAA [Eternabot solution 20] (Eterna round: R96, puzzle: Exclusion NG 1) | 0.019
AGCACUAUCACGAAAGUGAUAGUGCAAUAAGCAAGUGAAACAUGAGGAUCACCCAUGUCCUCAAUUGCUCGUCUUAU [Mat - Sensor v2 -ver2- JL mod - D81] (Eterna round: R96, puzzle: Sensor v2, turn-off variant 2) | 0.807

Record AGCUGUGGCCGAGGAUAUCCACAUGAGGAUCACCCAUGUGAAUAGGGAAUUAACCCAUAACCGUGGGAGAAGGCGGUCUCAGCA [Eli eng2 - 049] (Eterna round: R96, puzzle: Exclusion NG 2) has MS2 coat protein apparent KD of MS2 coat protein equal to 0.0486

Record GGUAUGGCCACAGGAUAUUGAGCCACAUGAGGAUCACCCAUGUGAGGACGUAGAAUCGCCUGGCCCAAGAAGGGUGAAGCCCAU [Eternabot solution 4] (Eterna round: R96, puzzle: Exclusion NG 2) has MS2 coat protein apparent KD of MS2 coat protein equal to 0.0131

Record UUGUUGUAUGUAGGAUAUGCGUGUUAUUAUUAUGCAGAAGGACAUGAGGAUCACCCAUGUAUAUUAUUAUUAUAUGUUAUAUAU [Title] (Eterna round: R96, puzzle: Exclusion NG 1) has MS2 coat protein apparent KD of MS2 coat protein equal to 0.0176

Record UUAAAUCAUGUAGGAUAUGCGUGGCGAAGCUAUGCAGAAGGACAUGAGGAUCACCCAUGUGCUUGCGUCUGAGUACAGAUGCUA [Mat - Exclusion NG 1 - Mod of JL - D4] (Eterna round: R96, puzzle: Exclusion NG 1) has MS2 coat protein apparent KD of MS2 coat protein equal to 0.074

Record GCAGCAUAGAUAACAUACUGUUACAUGAGGAUCACCCAUGUACAGGAUAUGGUCUGGAUUACAGGCCAGAAGGGUACAAGCUGC [Eli exng3 - 021] (Eterna round: R96, puzzle: Exclusion NG 3) has MS2 coat protein apparent KD of MS2 coat protein equal to 0.00863

Record GGUCAGACGGUAGGAUAUCCAUAUCGAGUGACCCUUUCAUAACAUGAGGAUCACCCAUGUCGGUGGGAGAAGGGCCGUACGGCG [salish99_ExNG02_R04_001] (Eterna round: R96, puzzle: Exclusion NG 2) has MS2 coat protein apparent KD of MS2 coat protein equal to 0.0704
